Recorded values, source ChEMBL document CHEMBL3351514.

assay_notes: Protective index, ratio of TD50 for neurotoxicity in po dosed albino Wistar rat to ED50 for anticonvulsant activity in po dosed albino Wistar rat assessed as protection against maximal electroshock-induced seizures at 2 hrs
Assay type: toxicity, organism-based
experimental_parameters: in vivo, read-out: Ratio TD50/ED50
measured_parameter: selectivity ratio at 2 h

Sure, the documented selectivity ratio at 2 h for O=C1CC(c2noc3ccccc23)C(=O)N1c1ccc(F)cc1 (stereo unspecified) is > 33.5

---

assay_notes: in vivo
experimental_parameters: Wistar, rat, po
Description: Protective index, ratio of TD50 for neurotoxicity in po dosed albino Wistar rat to ED50 for anticonvulsant activity in po dosed albino Wistar rat assessed as protection against maximal electroshock-induced seizures at 1 hr
measured_parameter: selectivity ratio at 1 h

Recorded selectivity ratio at 1 h (compound O=C1NC(=O)C(c2ccccc2)(c2ccccc2)N1 [PHENYTOIN] ): > 3.55
